src = ChEMBL document CHEMBL5120865

Exercise: for every item that follows, state its recorded remaining at 0.5 h.
Molecular target: UDP-glucuronosyltransferases (UGTs) (Homo sapiens, UniProt O60656+O75310+O75795+P06133+P0DTE4+P0DTE5+P16662+P19224+P22309+P22310+P35503+P35504+P36537+P54855+Q6UWM9+Q9BY64+Q9HAW7+Q9HAW8+Q9HAW9)
Test: Metabolic stability in human liver microsomes S9 fraction assessed as UGT-mediated metabolism by measuring parent compound remaining measured after 30 mins in presence of NADPH
Assay type: ADME, subcellular
Conditions: read-out: Stability
Please respond with the number in % and leave the unit unwritten.

Fill blank: measured remaining at 0.5 h of the compound "Cc1ncnc2c1c(-c1ncccc1Cl)cn2[C@@H]1O[C@H](CO)[C@@H](O)[C@H]1O" is ____. 95

And the next one, "Cc1ncnc2c1c(-c1cc(Cl)ccn1)cn2[C@@H]1O[C@H](CO)[C@@H](O)[C@H]1O" ? 96

###

Assay: Metabolic stability in golden hamster liver microsomes S9 fraction assessed as CYP450-mediated metabolism by measuring parent compound remaining measured after 15 mins in presence of NADPH
Type: ADME, subcellular, Mesocricetus auratus
Conditions: read-out: Stability
test-readout: remaining at 0.25 h (%)
Please respond with the number in % and leave the unit unwritten.

Fill blank: measured remaining at 0.25 h of the compound "Cc1ncnc2c1c(-c1cc(Cl)ccn1)cn2[C@@H]1O[C@H](CO)[C@@H](O)[C@H]1O" is ____. 96

And the next one, "Cc1ncnc2c1c(-c1ncccc1Cl)cn2[C@@H]1O[C@H](CO)[C@@H](O)[C@H]1O" ? 86

###

Test: Tmax in golden hamster infected with Leishmania infantum MHOM/MA(BE)/67 amastigotes at 50 mg/kg, po SID and measured after 10 days by LC-MS/MS analysis
Assay type: ADME, organism-based, Mesocricetus auratus
Settings: in vivo, time 10 day
test-readout: Tmax (min)
Please respond with the number in min and leave the unit unwritten.

Fill blank: measured Tmax of the compound "Cc1ncnc2c1c(-c1cc(Cl)ccn1)cn2[C@@H]1O[C@H](CO)[C@@H](O)[C@H]1O" is ____. 30

###

Target: Cytochrome P450 (Homo sapiens, UniProt P04798+P05177+P05181+P08684+P10632+P10635+P11509+P11712+P13584+P20813+P20815+P20853+P24462+P24903+P33260+P33261+P51589+P78329+P98187+Q02928+Q08477+Q16678+Q16696+Q5TCH4+Q6VVX0+Q7Z449+Q8TAV3+Q96SQ9+Q9HB55)
Experiment: Metabolic stability in human liver microsomes S9 fraction assessed as CYP450-mediated metabolism by measuring parent compound remaining measured after 60 mins in presence of NADPH
Assay type: ADME, subcellular
Conditions: read-out: Stability
Exercise: for every item that follows, state its recorded remaining at 1 h.
Please respond with the number in % and leave the unit unwritten.

Fill blank: measured remaining at 1 h of the molecule "Cc1ncnc2c1c(-c1cc(Cl)ccn1)cn2[C@@H]1O[C@H](CO)[C@@H](O)[C@H]1O" is ____. 75

And the next one, "Cc1ncnc2c1c(-c1ncccc1Cl)cn2[C@@H]1O[C@H](CO)[C@@H](O)[C@H]1O" ? 99

###

Experiment: Selectivity index, ratio of CC50 for cytotoxicity against human MRC5 cells to EC50 for Trypanosoma cruzi Tulahuen CL2 amastigotes expressing beta galactosidase infected in human MRC5 cells
Type: toxicity, cell-based
Details: read-out: Ratio CC50/EC50
Exercise: for every item that follows, state its recorded selectivity ratio.

Fill blank: measured selectivity ratio of the molecule "Cc1ncnc2c1c(-c1cc3ccccc3[nH]1)cn2[C@@H]1O[C@H](CO)[C@@H](O)[C@H]1O" is ____. 24

And the next one, "Cc1ncnc2c1c(-c1ccc[nH]1)cn2[C@@H]1O[C@H](CO)[C@@H](O)[C@H]1O" ? 19

And the next one, "Cc1ncnc2c1c(-c1ncccc1Cl)cn2[C@@H]1O[C@H](CO)[C@@H](O)[C@H]1O" ? > 91

And the next one, "Cc1ncnc2c1c(-c1cncnc1)cn2[C@@H]1O[C@H](CO)[C@@H](O)[C@H]1O" ? > 8.8

And the next one, "Cc1ncnc2c1c(-c1ncccn1)cn2[C@@H]1O[C@H](CO)[C@@H](O)[C@H]1O" ? > 10

And the next one, "Cc1ncnc2c1c(-c1nccs1)cn2[C@@H]1O[C@H](CO)[C@@H](O)[C@H]1O" ? 9.2

And the next one, "Cc1ncnc2c1c(-c1ccccn1)cn2[C@@H]1O[C@H](CO)[C@@H](O)[C@H]1O" ? > 39

And the next one, "Cc1ncnc2c1c(-c1cccc3cccnc13)cn2[C@@H]1O[C@H](CO)[C@@H](O)[C@H]1O" ? > 6.7

And the next one, "Cc1ncnc2c1c(-c1cc(Cl)ccn1)cn2[C@@H]1O[C@H](CO)[C@@H](O)[C@H]1O" ? > 77

And the next one, "Cc1ncnc2c1c(-c1ccc(Cl)cn1)cn2[C@@H]1O[C@H](CO)[C@@H](O)[C@H]1O" ? 53

And the next one, "Cc1ncnc2c1c(-c1cccc3c1N=CC3)cn2[C@@H]1O[C@H](CO)[C@@H](O)[C@H]1O" ? > 19
